Reported permeability values follow for various compounds
- System: Caco-2
- Assay overview: Permeability from apical to basolateral side of human Caco2 cells
- Type: ADME, cell-based

| Compound | Val |
| --- | --- |
| Cn1c2c(c3cc(S(=O)(=O)c4cccc(C(F)(F)F)c4)ccc31)C1CCC(C2)N1 (single isomer, unassigned; (+)) | 24.8 ×10⁻⁶ cm/s |
| Cn1c2c(c3cc(S(=O)(=O)c4csc5ccccc45)ccc31)C1CCC(C2)N1 (single isomer, unassigned; (-)) | 0.24 ×10⁻⁶ cm/s |
| Cn1c2c(c3cc(S(=O)(=O)c4c[nH]c5ccccc45)ccc31)C1CCC(C2)N1 (single isomer, unassigned; (-)) | 0.41 ×10⁻⁶ cm/s |

Which permeability value belongs to Cn1c2c(c3cc(S(=O)(=O)c4csc5ccccc45)ccc31)C1CCC(C2)N1 (single isomer, unassigned) ?
15.7 ×10⁻⁶ cm/s

###

- Assay overview: Clearance in Sprague-Dawley rat at 2 mg/kg, iv
- Type: ADME, organism-based
- Design: dose 2 mg/kg, route intravenous
- Condition notes: in vivo
Readout name: clearance (mL/min/kg)
Form entry: value (mL/min/kg) — number only.

Which clearance value belongs to Cn1c2c(c3cc(S(=O)(=O)c4cccc(C(F)(F)F)c4)ccc31)C1CCC(C2)N1 (single isomer, unassigned; (+)) ?
5.7

###

- Assay overview: Cmax (0 to 6 hrs) in Sprague-Dawley rat at 30 mg/kg, po
- Assay type: ADME, organism-based
- Design: dose 30 mg/kg, route oral
- Condition notes: in vivo
Readout name: Cmax (ng/mL)
Your answer should be a plain number; it is taken to be in ng/mL.

I would be grateful if you could share the reported Cmax for Cn1c2c(c3cc(S(=O)(=O)n4ccc5ccccc54)ccc31)C1CCC(C2)N1 (single isomer, unassigned; (+)) .
41

Please give the measured Cmax for this compound: Cn1c2c(c3cc(S(=O)(=O)c4cccc(C(F)(F)F)c4)ccc31)C1CCC(C2)N1 (single isomer, unassigned; (+))
732

###

- Assay overview: Cmax in Sprague-Dawley rat at 10 mg/kg, po
- Assay type: ADME, organism-based
- Design: dose 10 mg/kg, route oral
- Condition notes: in vivo
Readout name: Cmax (ng/mL)
Answer in ng/mL, number only, no unit symbol.

Report Cmax for Cn1c2c(c3cc(S(=O)(=O)c4cccc(C(F)(F)F)c4)ccc31)C1CCC(C2)N1 (single isomer, unassigned; (+)) please.
916

###

- System: Caco-2
- Assay overview: Permeability from apical to basolateral side of human Caco2 cells
- Type: ADME, cell-based
Readout name: permeability (×10⁻⁶ cm/s)
Express it in ×10⁻⁶ cm/s; write the number only.

Example entries begin here.
| Compound | Readout name | Val |
| --- | --- | --- |
| Cn1c2c(c3cc(S(=O)(=O)n4ccc5ccccc54)ccc31)C1CCC(C2)N1 (single isomer, unassigned; (+)) | permeability | 12 |
| Cn1c2c(c3cc(S(=O)(=O)c4c[nH]c5ccccc45)ccc31)C1CCC(C2)N1 (single isomer, unassigned; (+)) | permeability | 1.05 |

Continue with the next compound.
Which permeability is reported with Caco-2 for this entry: Cn1c2c(c3cc(S(=O)(=O)c4cccc(Cl)c4)ccc31)C1CCC(C2)N1 (single isomer, unassigned; (+)) ?
8.55

###

- Assay overview: Stability in rat liver microsomes assessed as compound remaining after 1 hr
- Assay type: ADME, Microsome
- Condition notes: liver microsomes, read-out: Stability
# key: entry, value: remaining at 1 h
Please answer using the number first and the unit second.

Sample Cn1c2c(c3cc(S(=O)(=O)c4csc5ccccc45)ccc31)C1CCC(C2)N1 (single isomer, unassigned; (-)) — what was its remaining at 1 h?
67%

State the recorded remaining at 1 h for this entry: Cn1c2c(c3cc(S(=O)(=O)n4ccc5ccccc54)ccc31)C1CCC(C2)N1 (single isomer, unassigned; (-))
88%

For the compound Cn1c2c(c3cc(S(=O)(=O)c4cccc(Cl)c4)ccc31)C1CCC(C2)N1 (single isomer, unassigned; (-)) , what remaining at 1 h is on record?
63%

# query: remaining at 1 h of entry Cn1c2c(c3cc(S(=O)(=O)c4cccc(C(F)(F)F)c4)ccc31)C1CCC(C2)N1 (single isomer, unassigned; (-))
65%

Which value of remaining at 1 h has been reported for Cn1c2c(c3cc(S(=O)(=O)c4ccc5[nH]ccc5c4)ccc31)C1CCC(C2)N1 (single isomer, unassigned; (-)) in the records?
77%

###

- Assay overview: Oral bioavailability in Sprague-Dawley rat at 2 mg/kg
- Type: ADME, organism-based
- Condition notes: in vivo
Readout name: bioavailability (%)
Numbers only here, please. The scale is %.

Give its bioavailability value. Item: Cn1c2c(c3cc(S(=O)(=O)c4cccc(C(F)(F)F)c4)ccc31)C1CCC(C2)N1 (single isomer, unassigned; (+))
91

###

- System: Liver microsomes
- Assay overview: Stability in rat liver microsomes assessed as compound remaining after 1 hr
- Format: ADME, Microsome
- Condition notes: microsomes, 1 h
// Stability lookup, one value per entry
Quick note: give the figure in %, leave out the unit.

| Compound | Experimental system | Stability (%) |
| --- | --- | --- |
| Cn1c2c(c3cc(S(=O)(=O)c4csc5ccccc45)ccc31)C1CCC(C2)N1 (single isomer, unassigned) | Liver microsomes | 80 |
| Cn1c2c(c3cc(S(=O)(=O)c4c[nH]c5ccccc45)ccc31)C1CCC(C2)N1 (single isomer, unassigned; (+)) | Liver microsomes | 57 |

Would you kindly share the measured Stability for Cn1c2c(c3cc(S(=O)(=O)c4cccc(Cl)c4)ccc31)C1CCC(C2)N1 (single isomer, unassigned; (+)) ?
72

So what's the measured Stability for this one? Cn1c2c(c3cc(S(=O)(=O)n4ccc5ccccc54)ccc31)C1CCC(C2)N1 (single isomer, unassigned; (+))
86

Looking for the measured Stability of Cn1c2c(c3cc(S(=O)(=O)c4c[nH]c5ccccc45)ccc31)C1CCC(C2)N1 (single isomer, unassigned; (-)) , can you help?
34

Requested field: Stability. Item: Cn1c2c(c3cc(S(=O)(=O)c4cccc(C(F)(F)F)c4)ccc31)C1CCC(C2)N1 (single isomer, unassigned; (+))
79

So what's the measured Stability for this one? Cn1c2c(c3cc(S(=O)(=O)c4ccc5[nH]ccc5c4)ccc31)C1CCC(C2)N1 (single isomer, unassigned; (+))
91

###

- Experimental system: 5-hydroxytryptamine receptor 6 (Homo sapiens, UniProt P50406)
- Sequence (P50406 whole entry): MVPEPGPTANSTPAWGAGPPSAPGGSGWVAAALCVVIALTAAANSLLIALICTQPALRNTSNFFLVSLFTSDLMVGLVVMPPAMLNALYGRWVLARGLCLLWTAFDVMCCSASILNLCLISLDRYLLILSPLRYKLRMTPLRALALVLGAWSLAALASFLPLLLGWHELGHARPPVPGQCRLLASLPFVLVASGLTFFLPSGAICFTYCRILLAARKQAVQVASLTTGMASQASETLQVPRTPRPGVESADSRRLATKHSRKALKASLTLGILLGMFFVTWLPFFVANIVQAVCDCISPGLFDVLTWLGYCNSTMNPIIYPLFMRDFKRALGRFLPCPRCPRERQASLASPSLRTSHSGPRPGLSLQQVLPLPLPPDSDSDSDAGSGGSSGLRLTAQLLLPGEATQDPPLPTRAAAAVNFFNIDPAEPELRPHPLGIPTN
This section presents compounds with their documented Ki values.
Numeric only. Scale: nM

Entry Cn1c2c(c3cc(S(=O)(=O)n4cccc4)ccc31)C1CCC(C2)N1 (racemic) has what Ki?
32

###

- Assay overview: Permeability from apical to basolateral side of human Caco2 cells
- Format: ADME, cell-based
- Condition notes: caco-2, read-out: permeability
Readout name: Papp A→B (×10⁻⁶ cm/s)
Express it in ×10⁻⁶ cm/s; write the number only.

| Compound | Readout name | Val |
| --- | --- | --- |
| Cn1c2c(c3cc(S(=O)(=O)n4ccc5ccccc54)ccc31)C1CCC(C2)N1 (single isomer, unassigned; (-)) | Papp A→B | 15 |
| Cn1c2c(c3cc(S(=O)(=O)c4cccc(Cl)c4)ccc31)C1CCC(C2)N1 (single isomer, unassigned; (-)) | Papp A→B | 7.49 |
| Cn1c2c(c3cc(S(=O)(=O)c4ccc5[nH]ccc5c4)ccc31)C1CCC(C2)N1 (single isomer, unassigned; (-)) | Papp A→B | 0.55 |

Consider the record given below.
Could you share which Papp A→B value was measured for Cn1c2c(c3cc(S(=O)(=O)c4cccc(C(F)(F)F)c4)ccc31)C1CCC(C2)N1 (single isomer, unassigned; (-)) ?
16.5

###

- Assay overview: Ratio of drug level in brain to plasma in Sprague-Dawley rat at 10 mg/kg, po after 6 hrs
- Assay type: ADME, organism-based
- Parameters: dose 10 mg/kg, route oral
- Condition notes: read-out: BPR
Readout name: Kp at 6 h
Answer field: number only, no words.

# input molecule: Cn1c2c(c3cc(S(=O)(=O)c4cccc(C(F)(F)F)c4)ccc31)C1CCC(C2)N1 (single isomer, unassigned; (+)) ; wanted: its Kp at 6 h
1.3

###

- Assay overview: Half life in Sprague-Dawley rat at 10 mg/kg, po
- Format: ADME, organism-based
- Parameters: dose 10 mg/kg, route oral
- Condition notes: in vivo
Readout name: half-life
Respond with the figure and its unit, in that order.

What does the data say about its half-life? Entry: Cn1c2c(c3cc(S(=O)(=O)c4cccc(C(F)(F)F)c4)ccc31)C1CCC(C2)N1 (single isomer, unassigned; (+))
10 h

###

- Assay overview: Tmax (0 to 6 hrs) in Sprague-Dawley rat at 30 mg/kg, po
- Format: ADME, organism-based
- Parameters: dose 30 mg/kg, route oral
- Condition notes: in vivo
Recorded Tmax for the following molecules
The number alone won't do; follow it with the unit.

| Molecule | Val |
| --- | --- |
| Cn1c2c(c3cc(S(=O)(=O)c4cccc(C(F)(F)F)c4)ccc31)C1CCC(C2)N1 (single isomer, unassigned; (+)) | 6 h |

Consider the record given below.
Using the record for Cn1c2c(c3cc(S(=O)(=O)n4ccc5ccccc54)ccc31)C1CCC(C2)N1 (single isomer, unassigned; (+)) , report its Tmax.
6 h
